Here the recorded pEC50 is given for each entry.
molecular target: CFTR (Homo sapiens, UniProt P13569); test: Membrane Potential Dye, Enteroid Assay A; type: cell-based; details: Enteroid Assay A; read-out: Ent. A EC50
Sequence (P13569 with tags, fused parts or gaps DEL508-508): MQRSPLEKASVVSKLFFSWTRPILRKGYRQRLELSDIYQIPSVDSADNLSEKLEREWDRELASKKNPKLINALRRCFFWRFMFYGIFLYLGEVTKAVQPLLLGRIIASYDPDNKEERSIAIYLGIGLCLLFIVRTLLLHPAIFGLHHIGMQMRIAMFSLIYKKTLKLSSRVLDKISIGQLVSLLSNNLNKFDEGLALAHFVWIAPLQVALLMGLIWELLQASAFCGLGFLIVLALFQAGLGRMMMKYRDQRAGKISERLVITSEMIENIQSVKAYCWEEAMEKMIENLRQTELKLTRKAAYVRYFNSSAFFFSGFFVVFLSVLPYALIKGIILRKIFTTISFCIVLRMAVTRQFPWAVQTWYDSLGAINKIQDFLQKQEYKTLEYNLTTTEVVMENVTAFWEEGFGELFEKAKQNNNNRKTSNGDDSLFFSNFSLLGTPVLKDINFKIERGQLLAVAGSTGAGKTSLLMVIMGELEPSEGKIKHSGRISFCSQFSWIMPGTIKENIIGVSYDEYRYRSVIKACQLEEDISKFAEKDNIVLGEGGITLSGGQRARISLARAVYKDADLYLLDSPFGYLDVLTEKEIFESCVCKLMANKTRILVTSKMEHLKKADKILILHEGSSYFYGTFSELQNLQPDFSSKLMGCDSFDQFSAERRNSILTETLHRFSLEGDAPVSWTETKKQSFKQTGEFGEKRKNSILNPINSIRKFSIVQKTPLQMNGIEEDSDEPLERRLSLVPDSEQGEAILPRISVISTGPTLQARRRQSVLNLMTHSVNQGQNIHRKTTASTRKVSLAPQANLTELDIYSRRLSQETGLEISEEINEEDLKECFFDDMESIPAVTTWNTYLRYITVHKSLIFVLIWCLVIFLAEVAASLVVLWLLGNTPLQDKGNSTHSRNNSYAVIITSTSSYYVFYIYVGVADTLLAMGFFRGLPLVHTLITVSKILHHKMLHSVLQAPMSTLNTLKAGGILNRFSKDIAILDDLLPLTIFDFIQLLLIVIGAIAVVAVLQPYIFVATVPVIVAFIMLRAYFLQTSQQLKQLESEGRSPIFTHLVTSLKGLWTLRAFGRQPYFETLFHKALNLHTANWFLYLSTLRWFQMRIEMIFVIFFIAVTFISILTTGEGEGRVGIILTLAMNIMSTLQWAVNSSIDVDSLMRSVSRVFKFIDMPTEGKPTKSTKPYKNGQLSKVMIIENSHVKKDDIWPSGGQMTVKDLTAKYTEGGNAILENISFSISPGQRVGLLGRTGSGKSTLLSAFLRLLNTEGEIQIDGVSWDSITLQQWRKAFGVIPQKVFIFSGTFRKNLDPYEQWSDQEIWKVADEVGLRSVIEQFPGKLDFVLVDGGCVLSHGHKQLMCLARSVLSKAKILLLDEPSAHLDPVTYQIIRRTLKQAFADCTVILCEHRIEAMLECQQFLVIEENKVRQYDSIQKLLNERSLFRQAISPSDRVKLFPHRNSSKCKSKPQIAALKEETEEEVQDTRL
pEC50: −log10 of the molar value.
recorded.metric: pEC50

molecule="Cc1cccc(C)c1-c1cc2nc(n1)NS(=O)(=O)c1cccc(c1)CNC1C[C@@H](CN(C(=O)OCc3ccccc3)C1)O2 (stereo in doubt) [Compound 192]" result="5.52 to 6.00"
molecule="Cc1cccc(C)c1-c1cc2nc(n1)NS(=O)(=O)c1cccc(c1)C(=O)N[C@H](c1ccccc1)CO2 [Compound 352]" result="> 6.00"
molecule="Cc1cccc(C)c1-c1cc2nc(n1)NS(=O)(=O)c1cccc(c1)C(=O)NCC1(CCN(Cc3sccc3Oc3ccccc3)CC1)CO2 [Compound 83]" result="> 6.00"
molecule="Cc1cccc(C)c1-c1cc2nc(n1)NS(=O)(=O)c1cccc(c1)C(=O)N[C@H](CC(C)C)CO2 [Compound 96]" result="> 6.00"
molecule="Cc1cccc(C)c1-c1cc2nc(n1)NS(=O)(=O)c1cccc(c1)C(=O)NCC1(CCN(C(=O)OC(C)(C)C)CC1)CO2 [Compound 81]" result="5.52 to 6.00"
molecule="COc1cccc(-c2cccc(C(=O)N3CCC4(CC3)CNC(=O)c3cccc(c3)S(=O)(=O)Nc3nc(cc(-c5c(C)cccc5C)n3)OC4)c2)c1 [Compound 459]" result="5.52 to 6.00"
molecule="Cc1cccc(C)c1-c1cc2nc(n1)NS(=O)(=O)c1cccc(c1)C(=O)NCC1(CCN(C(=O)C3(c4ccc5c(c4)CCC5)CC3)CC1)CO2 [Compound 464]" result="5.52 to 6.00"
molecule="Cc1cccc(C)c1-c1cc2nc(n1)NS(=O)(=O)c1cccc(c1)C(=O)NC(C(C)C)CO2 (stereo not shown) [Compound 355]" result="5.52 to 6.00"
molecule="Cc1cccc(C)c1-c1cc2nc(n1)NS(=O)(=O)c1cccc(c1)C(=O)NC1CC(CN(CCC(C)(C)C)C1)O2 (single isomer, unassigned) [Compound 80]" result="5.52 to 6.00"
molecule="CC(C)C[C@@H]1COc2cc(-c3ccccc3C3CC3)nc(n2)NS(=O)(=O)c2cccc(c2)C(=O)N1 [Compound 105]" result="> 6.00"
molecule="Cc1cccc(C)c1-c1cc2nc(n1)NS(=O)(=O)c1cccc(c1)C(=O)NC[C@@H](C)O2 [Compound 28]" result="4.52 to 5.52"
molecule="Cc1cccc(C)c1-c1cc2nc(n1)NS(=O)(=O)c1cccc(c1)C(=O)NC1CCCC[C@@H]1O2 (stereo in doubt) [Compound 485]" result="5.52 to 6.00"
molecule="Cc1cccc(C)c1-c1cc2nc(n1)NS(=O)(=O)c1cccc(c1)C(=O)N[C@H]1CC[C@H](CC1)O2 [Compound 198]" result="5.52 to 6.00"
molecule="CCOc1ccccc1-c1cc2nc(n1)NS(=O)(=O)c1cccc(c1)C(=O)N[C@H](CC(C)C)CO2 [Compound 328]" result="5.52 to 6.00"
molecule="Cc1cccc(C)c1-c1cc2nc(n1)NS(=O)(=O)c1cccc(c1)C(=O)NCC1(CCN(C(=O)c3cc4ccccc4n3CC#N)CC1)CO2 [Compound 452]" result="5.52 to 6.00"
molecule="Cc1cccc(C)c1-c1cc2nc(n1)NS(=O)(=O)c1cccc(c1)C(=O)NCC1(CCN(C(=O)CO[C@@H]3C[C@H](C)CC[C@H]3C(C)C)CC1)CO2 [Compound 468]" result="5.52 to 6.00"
